molecular target: EZH2 within the PRC2 complex (Homo sapiens); construct: FLAG; made in house; host or cells: Sf9 cells; assay: Assay Protocol 1: EZH2 methyltransferase scintillation proximity assay, mononucleosome substrate; assay type: biochemical; conditions: Assay Protocol 1; SPA, 3H-SAM, Histone H3 of mononucleosome purified from HeLa cells; 5-member PRC2 complex; read-out: EZH2 IC50
propertyName: pIC50
Numbers only, as −log10 of the molar value.

Solved cases below.
CCN(c1cccc2c1C/C=C/CCc1cc(C)[nH]c(=O)c1CN(C)C2=O)C1CCOCC1 [Example 9]    7.10
CCN(c1cccc2c1C/C=C/CNCc1cc(C)[nH]c(=O)c1CNC2=O)C1CCOCC1 [Example 38]    7.00

Take each entry in turn and give its pIC50.
1. CCN(c1cccc2c1C/C=C/CCc1cc(C)[nH]c(=O)c1CNC2=O)C1CCN(C(C)C)CC1 [Example 32]
2. CCN(c1cccc2c1CCCC(CO)Cc1cc(C)[nH]c(=O)c1CNC2=O)C1CCOCC1 (stereo not shown) [Example 27]

[7.30, 6.50]

----------
target: EZH2 within the PRC2 complex (Homo sapiens, UniProt Q15910); construct: FLAG; made in house; host or cells: Sf9 cells; assay: Assay Protocol 2: EZH2 methyltransferase scintillation proximity assay, biotinylated histone H3 peptide substrate; format: biochemical; conditions: SPA, 3H-SAM, biotinylated unmethylated histone H3K27 peptide substrate, 5-member PRC2 complex
Sequence (Q15910 whole entry): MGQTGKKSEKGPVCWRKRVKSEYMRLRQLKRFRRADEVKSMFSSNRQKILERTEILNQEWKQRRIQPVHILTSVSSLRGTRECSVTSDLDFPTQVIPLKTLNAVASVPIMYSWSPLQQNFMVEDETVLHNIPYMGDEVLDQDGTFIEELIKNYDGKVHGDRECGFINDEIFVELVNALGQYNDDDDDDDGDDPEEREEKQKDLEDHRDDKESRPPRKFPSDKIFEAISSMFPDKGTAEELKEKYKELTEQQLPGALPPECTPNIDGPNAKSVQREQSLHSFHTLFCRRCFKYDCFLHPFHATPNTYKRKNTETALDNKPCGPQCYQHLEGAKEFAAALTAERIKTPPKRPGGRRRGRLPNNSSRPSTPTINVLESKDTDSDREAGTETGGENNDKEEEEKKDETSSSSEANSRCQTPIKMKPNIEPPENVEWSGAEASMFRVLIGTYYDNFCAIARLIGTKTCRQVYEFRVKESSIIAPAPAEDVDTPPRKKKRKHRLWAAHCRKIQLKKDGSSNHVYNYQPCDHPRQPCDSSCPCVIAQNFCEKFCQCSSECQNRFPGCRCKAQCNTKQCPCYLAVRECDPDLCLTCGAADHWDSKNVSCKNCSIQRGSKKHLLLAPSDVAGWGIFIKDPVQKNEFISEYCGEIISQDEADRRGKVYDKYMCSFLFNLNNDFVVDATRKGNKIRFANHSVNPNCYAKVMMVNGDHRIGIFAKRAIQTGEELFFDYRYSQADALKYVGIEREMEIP
Sequence (O75530 whole entry partner): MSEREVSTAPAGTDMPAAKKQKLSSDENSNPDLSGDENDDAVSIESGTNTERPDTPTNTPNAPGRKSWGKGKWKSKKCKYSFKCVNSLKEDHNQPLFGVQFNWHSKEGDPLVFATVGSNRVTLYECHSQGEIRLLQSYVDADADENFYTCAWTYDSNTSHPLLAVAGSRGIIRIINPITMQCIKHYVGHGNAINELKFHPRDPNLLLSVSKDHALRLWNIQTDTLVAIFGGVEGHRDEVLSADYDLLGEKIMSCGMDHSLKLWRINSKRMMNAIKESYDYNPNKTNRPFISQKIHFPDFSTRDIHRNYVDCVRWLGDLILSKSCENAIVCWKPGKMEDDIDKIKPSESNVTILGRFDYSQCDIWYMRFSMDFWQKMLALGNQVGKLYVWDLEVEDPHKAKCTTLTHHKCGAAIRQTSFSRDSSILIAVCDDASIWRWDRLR
Sequence (Q15022 whole entry partner): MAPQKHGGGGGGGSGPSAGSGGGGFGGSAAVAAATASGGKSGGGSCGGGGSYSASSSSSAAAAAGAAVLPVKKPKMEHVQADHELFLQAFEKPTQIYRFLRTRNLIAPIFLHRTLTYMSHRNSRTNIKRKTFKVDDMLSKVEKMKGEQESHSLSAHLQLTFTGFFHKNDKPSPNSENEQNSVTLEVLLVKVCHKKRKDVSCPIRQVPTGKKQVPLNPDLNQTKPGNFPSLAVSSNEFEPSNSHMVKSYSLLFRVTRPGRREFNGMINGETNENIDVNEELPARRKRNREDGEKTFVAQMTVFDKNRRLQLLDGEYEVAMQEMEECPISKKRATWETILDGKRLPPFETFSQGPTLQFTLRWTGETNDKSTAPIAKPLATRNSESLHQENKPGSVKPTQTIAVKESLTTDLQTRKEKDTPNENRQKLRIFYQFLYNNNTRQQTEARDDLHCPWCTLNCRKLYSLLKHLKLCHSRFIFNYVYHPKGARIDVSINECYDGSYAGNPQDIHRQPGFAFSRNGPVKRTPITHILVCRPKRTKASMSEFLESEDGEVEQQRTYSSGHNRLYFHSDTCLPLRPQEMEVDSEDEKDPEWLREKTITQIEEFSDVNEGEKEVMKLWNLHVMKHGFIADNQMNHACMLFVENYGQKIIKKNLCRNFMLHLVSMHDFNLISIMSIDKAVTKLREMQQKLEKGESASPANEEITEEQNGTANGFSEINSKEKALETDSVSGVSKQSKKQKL
Sequence (Q09028 whole entry partner): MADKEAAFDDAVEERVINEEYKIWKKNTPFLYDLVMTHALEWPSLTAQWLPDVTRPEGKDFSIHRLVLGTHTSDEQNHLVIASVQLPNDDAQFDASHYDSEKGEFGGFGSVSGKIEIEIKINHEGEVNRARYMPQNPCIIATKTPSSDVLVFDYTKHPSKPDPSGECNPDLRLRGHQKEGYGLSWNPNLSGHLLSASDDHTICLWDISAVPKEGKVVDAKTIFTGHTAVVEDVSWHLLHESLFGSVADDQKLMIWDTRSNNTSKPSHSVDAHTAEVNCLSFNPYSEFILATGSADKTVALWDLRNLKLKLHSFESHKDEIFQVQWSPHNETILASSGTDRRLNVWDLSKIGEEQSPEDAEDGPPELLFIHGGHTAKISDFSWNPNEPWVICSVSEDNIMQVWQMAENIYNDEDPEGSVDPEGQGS
Sequence (Q6ZN18 whole entry partner): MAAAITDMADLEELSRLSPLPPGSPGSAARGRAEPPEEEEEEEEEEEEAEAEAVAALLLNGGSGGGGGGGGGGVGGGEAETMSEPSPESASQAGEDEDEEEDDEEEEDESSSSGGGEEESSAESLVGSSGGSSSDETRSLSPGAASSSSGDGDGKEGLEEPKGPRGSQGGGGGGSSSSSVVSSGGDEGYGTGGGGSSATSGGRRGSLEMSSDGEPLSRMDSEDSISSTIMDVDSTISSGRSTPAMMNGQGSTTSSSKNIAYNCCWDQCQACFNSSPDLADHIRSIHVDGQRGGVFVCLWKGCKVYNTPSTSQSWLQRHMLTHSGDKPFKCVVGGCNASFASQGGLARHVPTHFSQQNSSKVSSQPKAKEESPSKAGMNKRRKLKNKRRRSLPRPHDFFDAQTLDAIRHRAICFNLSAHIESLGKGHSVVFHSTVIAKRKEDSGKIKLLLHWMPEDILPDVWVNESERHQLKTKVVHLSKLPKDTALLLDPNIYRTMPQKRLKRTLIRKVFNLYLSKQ
Where a name gives a salt, the structure may show the parent alone.
Kindly supply the reported pIC50 values for the records listed here.
Answers are plain numbers, as −log10 of the molar value.

Solved cases below.
CCN(c1cccc2c1C/C=C/CCCc1cc(C)[nH]c(=O)c1CNC2=O)[C@H]1CC[C@H](N(C)C)CC1    7.10
Cc1cc2c(c(=O)[nH]1)CNC(=O)c1cccc(O[C@H]3CC[C@H](N(C)C)CC3)c1C/C=C\CC2    5.30
CCN(c1cccc2c1C/C=C/CCc1cc(C)[nH]c(=O)c1CNC2=O)C1CC2(C1)CN(C)C2    7.10

Take each entry in turn and give its pIC50.
1. CCN(c1cccc2c1C/C=C/CCc1cc(C)[nH]c(=O)c1CNC2=O)[C@H]1CC[C@H](N)CC1
2. CCN(c1cccc2c1CCCCc1cc(C)[nH]c(=O)c1CNC2=O)[C@H]1CC[C@H](N(C)C)CC1

1. 6.90
2. 6.60

Take each entry in turn and give its pIC50.
1. CCN(c1cccc2c1C/C=C/CCc1cc(C)[nH]c(=O)c1CNC2=O)[C@H]1CC[C@H](N2CCC2)CC1
2. CCN(c1cccc2c1C/C=C/CCCCc1cc(C)[nH]c(=O)c1CNC2=O)C1CCOCC1 [Example 14, hydrochloride]
3. CCN(c1cccc2c1C/C=C/CCc1cc(C)[nH]c(=O)c1CNC2=O)[C@H]1CC[C@@H](N2CCOCC2)CC1

1: 5.90; 2: 6.80; 3: 6.70

----------
target: EZH2 within the PRC2 complex (Homo sapiens, UniProt Q15910); construct: FLAG; made in house; host or cells: Sf9 cells; test: Assay Protocol 2: EZH2 methyltransferase scintillation proximity assay, biotinylated histone H3 peptide substrate; assay type: biochemical; conditions: SPA, 3H-SAM, biotinylated unmethylated histone H3K27 peptide substrate, 5-member PRC2 complex
propertyName: IC50 (nM)
One number for each entry, in nM.

CCN(c1cccc2c1C/C=C/CCc1cc(C)[nH]c(=O)c1CNC2=O)[C@H]1CC[C@@H](NCCC(F)(F)F)CC1    251
CCN(c1cccc2c1C/C=C/CCc1cc(C)[nH]c(=O)c1CNC2=O)C1CCN(Cc2ccn(C)n2)CC1    50
CCN(c1cccc2c1C/C=C/CCc1cc(C)[nH]c(=O)c1CNC2=O)[C@H]1CC[C@@H](N2CC(F)(F)C2)CC1    200

Consider now this further compound.
Name the reported IC50 value associated with the compound CCN(CC)[C@H]1CC[C@H](N(CC)c2cccc3c2C/C=C/CCc2cc(C)[nH]c(=O)c2CNC3=O)CC1
158

----------
target: EZH2 within the PRC2 complex (Homo sapiens); construct: FLAG; made in house; host or cells: Sf9 cells; assay: Assay Protocol 2: EZH2 methyltransferase scintillation proximity assay, biotinylated histone H3 peptide substrate; type: biochemical; settings: SPA, 3H-SAM, biotinylated unmethylated histone H3K27 peptide substrate, 5-member PRC2 complex
Kindly supply the reported IC50 values for the records listed here.
Answers are plain numbers, in nM.

Cc1cc2c(c(=O)[nH]1)CNC(=O)c1cc(Cl)cc(O[C@H]3CC[C@H](N(C)C)CC3)c1CCCCC2 [Example 3]    158
CCN(c1cccc2c1C/C=C/CCc1cc(C)[nH]c(=O)c1CNC2=O)C1CCN(CCO)CC1 [Example 35]    200
CCN(c1cccc2c1C/C=C\CCc1cc(C)[nH]c(=O)c1CNC2=O)C1CCNCC1 [Example 52]    2000

Consider now this further compound.
Name the reported IC50 value associated with the compound CCN(c1cccc2c1CCCCCCc1cc(C)[nH]c(=O)c1CNC2=O)C1CCOCC1 [Example 20]
1000

----------
target: EZH2 within the PRC2 complex (Homo sapiens, UniProt Q15910); construct: FLAG; made in house; host or cells: Sf9 cells; experiment: Assay Protocol 1: EZH2 methyltransferase scintillation proximity assay, mononucleosome substrate; assay type: biochemical; conditions: Assay Protocol 1; SPA, 3H-SAM, Histone H3 of mononucleosome purified from HeLa cells; 5-member PRC2 complex; read-out: EZH2 IC50
Where a name gives a salt, the structure may show the parent alone.
propertyName: log10(IC50) (log10 of the value in µM)
// units: µM (pre-log); metric: IC50; scale: log10

Solved cases below.
CCN(c1cccc2c1C/C=C\COc1cc(C)[nH]c(=O)c1CNC2=O)C1CCOCC1    -0.10
CCN(c1cc(Cl)cc2c1C/C=C\CCc1cc(C)[nH]c(=O)c1CNC2=O)C1CCOCC1 [Example 16, hydrochloride]    -0.30
CCN(c1cccc2c1C/C=C\C(CO)Cc1cc(C)[nH]c(=O)c1CNC2=O)C1CCOCC1 (stereo not shown)    1.10
Cc1cc2c(c(=O)[nH]1)CNC(=O)c1cc(Cl)cc(O[C@H]3CC[C@H](N(C)C)CC3)c1C/C=C/CCC2    -1.20
Cc1cc2c(c(=O)[nH]1)CNC(=O)c1cc(Cl)cc(O[C@H]3CC[C@H](N(C)C)CC3)c1CCCCC2    -1.00
CCN(c1cccc2c1CCCC(O)CCc1cc(C)[nH]c(=O)c1CNC2=O)C1CCOCC1 (stereo not shown)    -0.20

Consider now this further compound.
Name the reported log10(IC50) value associated with the compound CCN(c1cccc2c1C/C=C\CNCc1cc(C)[nH]c(=O)c1CNC2=O)C1CCOCC1
0.10

----------
Target: EZH2 within the PRC2 complex (Homo sapiens)
Construct: FLAG; made in house; host or cells: Sf9 cells
Test: Assay Protocol 2: EZH2 methyltransferase scintillation proximity assay, biotinylated histone H3 peptide substrate
Assay type: biochemical
Settings: SPA, 3H-SAM, biotinylated unmethylated histone H3K27 peptide substrate, 5-member PRC2 complex
Experimental: Compounds contained herein were evaluated for their ability to inhibit the methyltransferase activity of EZH2 within the PRC2 complex. […] The peptides were captured on streptavidin-coated SPA beads and the resulting signal was read on a ViewLux plate reader. • 4. Prepare 10 mM stock of compounds from solid in 100% DMSO. • 5. […] Read the assay plates on the Viewlux Plate Reader utilizing the 613 nm emission filter or clear filter (300 s exposure). […]
propertyName: log10 of IC50 (log10 of the value in nM)
// units: nM (pre-log); metric: IC50; scale: log10

Solved cases below.
CCN(c1cccc2c1C/C=C/CCc1cc(C)[nH]c(=O)c1CNC2=O)[C@H]1CC[C@@H](N2CC(F)C2)CC1    2.40
CCN(c1cccc2c1C/C=C/CCc1cc(C)[nH]c(=O)c1CNC2=O)[C@H]1CC[C@H](NCCC(F)(F)F)CC1    2.20
CCN(c1cccc2c1C/C=C/CCc1cc(C)[nH]c(=O)c1CNC2=O)C1CCN(C(CO)CO)CC1    2.60
CCN(c1cccc2c1C/C=C/CCc1cc(C)[nH]c(=O)c1CNC2=O)C1CCN(CC(F)(F)F)CC1    2.30
CCN(c1cccc2c1C/C=C/CCc1cc(C)[nH]c(=O)c1CNC2=O)C1CC2(CC(N(C)C)C2)C1 (stereo not drawn)    2.40
CCN(c1cccc2c1C/C=C/CCc1cc(C)[nH]c(=O)c1CNC2=O)C1CC2(CCNCC2)C1    2.10

Take each entry in turn and give its log10 of IC50.
1. CCN(c1cc(Cl)cc2c1C/C=C/CCc1cc(C)[nH]c(=O)c1CNC2=O)C1CCOCC1
2. CCN(c1cccc2c1C/C=C/CCc1cc(C)[nH]c(=O)c1CNC2=O)C1CCC(F)(F)CC1
3. CCN(c1cccc2c1C/C=C/CCc1cc(C)[nH]c(=O)c1CNC2=O)C1CCN(C(C)C)CC1
4. CCN(c1cccc2c1C/C=C/CCc1cc(C)[nH]c(=O)c1CNC2=O)C1CCOCC1
5. CCN(c1cccc2c1C/C=C/CCc1cc(C)[nH]c(=O)c1CNC2=O)[C@H]1CC[C@H](N2CC(F)(F)C2)CC1

1. 2.10
2. 1.90
3. 2.20
4. 2.20
5. 2.30
